experiment: SBL liposome formation, diameter and PDI in various salts; assay type: physicochemical; settings: 150 mM KBr, five minutes after sonication
Recorded endpoint: Liposome diameter (nm)

Worked cases, Liposome diameter (nm) given:
Compound: CCCCCCCCCCCC(=O)OCC(C[N+](C)(C)CCCS(=O)(=O)[O-])OC(=O)CCCCCCCCCCC (centres unmarked)
Liposome diameter (nm): 54.56
--
Compound: CCCCCCCC/C=C\CCCCCCCC(=O)OCC(C[N+](C)(C)CCCS(=O)(=O)[O-])OC(=O)CCCCCCC/C=C\CCCCCCCC (centres unmarked)
Liposome diameter (nm): 120.8

(I) CCCCCCCCCCCCCCCCCC(=O)OCC(C[N+](C)(C)CCCS(=O)(=O)[O-])OC(=O)CCCCCCCCCCCCCCCCC (centres unmarked)
(II) CCCCCCCCCCCCCC(=O)OCC(C[N+](C)(C)CCCS(=O)(=O)[O-])OC(=O)CCCCCCCCCCCCC (centres unmarked)
(III) CCCCCCCCCCCCCCCC(=O)OCC(C[N+](C)(C)CCCS(=O)(=O)[O-])OC(=O)CCCCCCCCCCCCCCC (centres unmarked)
Prompt: Sort entries by Liposome diameter (nm) from minimum to maximum value. Show the ranking through the labels, in the order asked for.
Response: II, III, I

====

assay: SBL liposome formation, diameter and PDI in various salts; type: physicochemical; settings: 150 mM KBr (24 h)
Recorded endpoint: Liposome diameter (nm)

Compound: CCCCCCCC/C=C\CCCCCCCC(=O)OCC(C[N+](C)(C)CCCS(=O)(=O)[O-])OC(=O)CCCCCCC/C=C\CCCCCCCC (centres unmarked)
Recorded endpoint: Liposome diameter (nm)
Number: 137.6

(A) CCCCCCCCCCCCCC(=O)OCC(C[N+](C)(C)CCCS(=O)(=O)[O-])OC(=O)CCCCCCCCCCCCC (centres unmarked)
(B) CCCCCCCCCCCC(=O)OCC(C[N+](C)(C)CCCS(=O)(=O)[O-])OC(=O)CCCCCCCCCCC (centres unmarked)
Prompt: Just curious, which one has the larger Liposome diameter (nm) reading, A or B ? The response must carry the label of the picked entry.
Response: B

====

assay: SBL liposome formation, diameter and PDI in various salts; assay type: physicochemical; conditions: 1000 mM NaCl, 26 mM lipid, 10 mM HEPES pH 7.4
Recorded endpoint: PDI

Worked cases, PDI given:
Compound: CCCCCCCCCCCC(=O)OCC(C[N+](C)(C)CCCS(=O)(=O)[O-])OC(=O)CCCCCCCCCCC (centres unmarked) [DLSB]
Number: 0.361
--
Compound: CCCCCCCCCCCCCC(=O)OCC(C[N+](C)(C)CCCS(=O)(=O)[O-])OC(=O)CCCCCCCCCCCCC (centres unmarked) [DMSB]
Number: 0.233

(a) CCCCCCCC/C=C\CCCCCCCC(=O)OCC(C[N+](C)(C)CCCS(=O)(=O)[O-])OC(=O)CCCCCCC/C=C\CCCCCCCC (centres unmarked) [DOSB]
(b) CCCCCCCCCCCCCCCC(=O)OCC(C[N+](C)(C)CCCS(=O)(=O)[O-])OC(=O)CCCCCCCCCCCCCCC (centres unmarked) [DPSB]
(c) CCCCCCCCCCCCCCCCCC(=O)OCC(C[N+](C)(C)CCCS(=O)(=O)[O-])OC(=O)CCCCCCCCCCCCCCCCC (centres unmarked) [DSSB]
Prompt: Order field: PDI | Direction: descending (largest first) Show the ranking through the labels, in the order asked for.
Response: c, b, a
(c: 0.404, b: 0.275, a: 0.176)

====

experiment: SBL liposome formation, diameter and PDI in various salts; format: physicochemical; conditions: 150 mM NaClO4 (24 h)
Recorded endpoint: Liposome diameter (nm)

Molecule: CCCCCCCCCCCCCC(=O)OCC(C[N+](C)(C)CCCS(=O)(=O)[O-])OC(=O)CCCCCCCCCCCCC (centres unmarked)
Number: 43.68
--
Molecule: CCCCCCCCCCCC(=O)OCC(C[N+](C)(C)CCCS(=O)(=O)[O-])OC(=O)CCCCCCCCCCC (centres unmarked)
Number: 37.32
--
Molecule: CCCCCCCCCCCCCCCCCC(=O)OCC(C[N+](C)(C)CCCS(=O)(=O)[O-])OC(=O)CCCCCCCCCCCCCCCCC (centres unmarked)
Number: 71.96

(a) CCCCCCCC/C=C\CCCCCCCC(=O)OCC(C[N+](C)(C)CCCS(=O)(=O)[O-])OC(=O)CCCCCCC/C=C\CCCCCCCC (centres unmarked)
(b) CCCCCCCCCCCCCCCC(=O)OCC(C[N+](C)(C)CCCS(=O)(=O)[O-])OC(=O)CCCCCCCCCCCCCCC (centres unmarked)
Prompt: Just curious, which one has the larger Liposome diameter (nm) reading, a or b ? The response must carry the label of the picked entry.
Response: a

====

assay: SBL liposome formation, diameter and PDI in various salts; type: physicochemical; parameters: key: DNF=Did Not Form, no liposomes formed; conditions: 150 mM NaCl, 26 mM lipid, 10 mM HEPES pH 7.4
Recorded endpoint: Liposome diameter (nm)

Compound: CCCCCCCCCCCCCC(=O)OCC(C[N+](C)(C)CCCS(=O)(=O)[O-])OC(=O)CCCCCCCCCCCCC (centres unmarked)
Liposome diameter (nm): DNF

Compound: CCCCCCCCCCCCCCCC(=O)OCC(C[N+](C)(C)CCCS(=O)(=O)[O-])OC(=O)CCCCCCCCCCCCCCC (centres unmarked)
Liposome diameter (nm): DNF

Compound: CCCCCCCCCCCCCCCCCC(=O)OCC(C[N+](C)(C)CCCS(=O)(=O)[O-])OC(=O)CCCCCCCCCCCCCCCCC (centres unmarked)
Liposome diameter (nm): DNF

Compound: CCCCCCCCCCCC(=O)OCC(C[N+](C)(C)CCCS(=O)(=O)[O-])OC(=O)CCCCCCCCCCC (centres unmarked)
Liposome diameter (nm): 1728 nm

Note: attention shifts to another entry.
Prompt: // lookup Liposome diameter (nm) for CCCCCCCC/C=C\CCCCCCCC(=O)OCC(C[N+](C)(C)CCCS(=O)(=O)[O-])OC(=O)CCCCCCC/C=C\CCCCCCCC (centres unmarked)
Response: DNF

====

assay: SBL liposome formation, diameter and PDI in various salts; type: physicochemical; conditions: 150 mM NaClO4, five minutes after sonication
Recorded endpoint: PDI

Molecule: CCCCCCCCCCCCCC(=O)OCC(C[N+](C)(C)CCCS(=O)(=O)[O-])OC(=O)CCCCCCCCCCCCC (centres unmarked)
Recorded endpoint: PDI
Number: 0.239
//
Molecule: CCCCCCCCCCCCCCCCCC(=O)OCC(C[N+](C)(C)CCCS(=O)(=O)[O-])OC(=O)CCCCCCCCCCCCCCCCC (centres unmarked)
Recorded endpoint: PDI
Number: 0.258
//
Molecule: CCCCCCCCCCCC(=O)OCC(C[N+](C)(C)CCCS(=O)(=O)[O-])OC(=O)CCCCCCCCCCC (centres unmarked)
Recorded endpoint: PDI
Number: 0.205
//
Molecule: CCCCCCCC/C=C\CCCCCCCC(=O)OCC(C[N+](C)(C)CCCS(=O)(=O)[O-])OC(=O)CCCCCCC/C=C\CCCCCCCC (centres unmarked)
Recorded endpoint: PDI
Number: 0.250
//
Molecule: CCCCCCCCCCCCCCCC(=O)OCC(C[N+](C)(C)CCCS(=O)(=O)[O-])OC(=O)CCCCCCCCCCCCCCC (centres unmarked)
Recorded endpoint: PDI
Number: 0.220

====

assay: SBL liposome formation, diameter and PDI in various salts; assay type: physicochemical; settings: 150 mM NaClO4 (24 h)
Recorded endpoint: PDI

Worked cases, PDI given:
Compound: CCCCCCCCCCCC(=O)OCC(C[N+](C)(C)CCCS(=O)(=O)[O-])OC(=O)CCCCCCCCCCC (centres unmarked)
Recorded endpoint: PDI
Number: 0.251
//
Compound: CCCCCCCCCCCCCC(=O)OCC(C[N+](C)(C)CCCS(=O)(=O)[O-])OC(=O)CCCCCCCCCCCCC (centres unmarked)
Recorded endpoint: PDI
Number: 0.24
//
Compound: CCCCCCCCCCCCCCCCCC(=O)OCC(C[N+](C)(C)CCCS(=O)(=O)[O-])OC(=O)CCCCCCCCCCCCCCCCC (centres unmarked)
Recorded endpoint: PDI
Number: 0.282

(1) CCCCCCCC/C=C\CCCCCCCC(=O)OCC(C[N+](C)(C)CCCS(=O)(=O)[O-])OC(=O)CCCCCCC/C=C\CCCCCCCC (centres unmarked)
(2) CCCCCCCCCCCCCCCC(=O)OCC(C[N+](C)(C)CCCS(=O)(=O)[O-])OC(=O)CCCCCCCCCCCCCCC (centres unmarked)
Prompt: Just curious, which one has the larger PDI reading, 1 or 2 ? The response must carry the label of the picked entry.
Response: 2
(2: 0.353, 1: 0.235)

====

assay: SBL liposome formation, diameter and PDI in various salts; format: physicochemical; details: 150 mM NaClO4, five minutes after sonication
Recorded endpoint: Liposome diameter (nm)

Compound: CCCCCCCCCCCCCCCCCC(=O)OCC(C[N+](C)(C)CCCS(=O)(=O)[O-])OC(=O)CCCCCCCCCCCCCCCCC (stereo not drawn)
Units: nm
Liposome diameter (nm): 42.45
//
Compound: CCCCCCCCCCCC(=O)OCC(C[N+](C)(C)CCCS(=O)(=O)[O-])OC(=O)CCCCCCCCCCC (stereo not drawn)
Units: nm
Liposome diameter (nm): 30.46
//
Compound: CCCCCCCCCCCCCCCC(=O)OCC(C[N+](C)(C)CCCS(=O)(=O)[O-])OC(=O)CCCCCCCCCCCCCCC (stereo not drawn)
Units: nm
Liposome diameter (nm): 35.1
